experiment: Volume of distribution at steady state in human at 16 mg, iv administered as single infusion for 30 to 60 mins; assay type: ADME, organism-based; settings: in vivo, time 30-60 min, read-out: Vdss
measurement-name: Vd

INSERT INTO results (chemical_string, reported) VALUES
  ('C[C@H](Nc1cc(Cl)nc2c1cnn2[C@@H]1O[C@H](COP(=O)(O)CP(=O)(O)O)[C@@H](O)[C@H]1O)c1ccccc1F', '6.38 L');

* * *

test: Fraction unbound in monkey plasma; format: ADME, cell-free, Macaca mulatta; conditions: rhesus monkey
Recorded fraction unbound by entry
measurement-name: fraction unbound

INSERT INTO assay_data (chemical_string, measurement_name, reported) VALUES
  ('C[C@H](Nc1cc(Cl)nc2c1cnn2[C@@H]1O[C@H](COP(=O)(O)CP(=O)(O)O)[C@@H](O)[C@H]1O)c1ccccc1F', 'fraction unbound', 0.0059),
  ('C[C@H](Nc1cc(Cl)nc2c1cnn2[C@@H]1O[C@H](COP(=O)(O)CP(=O)(O)O)[C@@H](O)[C@H]1O)c1ccc(F)cc1', 'fraction unbound', 0.0034),
  ('C[C@H](Nc1nc(Cl)nc2c1cnn2[C@@H]1O[C@H](COP(=O)(O)CP(=O)(O)O)[C@@H](O)[C@H]1O)c1ccccc1', 'fraction unbound', 0.002);
